Molecular target: human kinase Mps-1 (Homo sapiens, UniProt P33981)
Construct: N-terminally GST-tagged human full length recombinant Mps-1 kinase; GST (N)
Sequence (P33981 1-857): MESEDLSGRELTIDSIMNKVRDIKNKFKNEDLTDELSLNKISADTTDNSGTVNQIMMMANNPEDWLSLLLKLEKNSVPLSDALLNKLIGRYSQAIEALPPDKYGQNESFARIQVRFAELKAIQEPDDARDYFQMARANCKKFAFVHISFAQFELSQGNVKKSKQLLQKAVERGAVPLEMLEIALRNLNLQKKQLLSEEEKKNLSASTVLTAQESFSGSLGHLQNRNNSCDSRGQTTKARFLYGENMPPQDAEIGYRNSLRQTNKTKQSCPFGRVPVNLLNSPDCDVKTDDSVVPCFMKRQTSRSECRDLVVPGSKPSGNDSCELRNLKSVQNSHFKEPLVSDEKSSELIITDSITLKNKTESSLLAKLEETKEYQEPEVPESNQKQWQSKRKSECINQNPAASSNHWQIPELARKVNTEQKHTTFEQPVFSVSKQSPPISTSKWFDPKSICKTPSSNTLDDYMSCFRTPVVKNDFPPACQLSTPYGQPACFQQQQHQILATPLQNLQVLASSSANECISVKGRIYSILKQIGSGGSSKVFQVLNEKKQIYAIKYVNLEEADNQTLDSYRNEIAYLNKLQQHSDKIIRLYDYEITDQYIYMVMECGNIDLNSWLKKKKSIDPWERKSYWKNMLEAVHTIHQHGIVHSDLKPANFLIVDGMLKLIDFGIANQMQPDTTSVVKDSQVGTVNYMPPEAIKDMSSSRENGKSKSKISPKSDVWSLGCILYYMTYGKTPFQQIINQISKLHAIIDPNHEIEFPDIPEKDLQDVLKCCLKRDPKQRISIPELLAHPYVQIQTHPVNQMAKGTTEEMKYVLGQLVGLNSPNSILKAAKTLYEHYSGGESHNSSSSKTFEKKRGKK
Test: Mps-1 kinase assay (TR-FRET)
Details: N-terminally GST-tagged human full length recombinant Mps-1; 10 μM ATP; 1 μM peptide substrate; 15 min pre-incubation; 60 min at 22° C.
Sorting guide: entries reporting IC50 beneath 5 nM go in the Met pile, the rest go in the Not met pile.

Lookup: is_below(IC50, 5 nM) for CC(C)CNc1nc(-c2ccc(OC(F)(F)F)cc2)cn2c(-c3ccc(C(=O)NC4CC4)cc3)cnc12 [Example 1-52] ?
Found: Not met
